System: UniProtKB P56524
Sequence (P56524 whole entry, the tested form may be a part): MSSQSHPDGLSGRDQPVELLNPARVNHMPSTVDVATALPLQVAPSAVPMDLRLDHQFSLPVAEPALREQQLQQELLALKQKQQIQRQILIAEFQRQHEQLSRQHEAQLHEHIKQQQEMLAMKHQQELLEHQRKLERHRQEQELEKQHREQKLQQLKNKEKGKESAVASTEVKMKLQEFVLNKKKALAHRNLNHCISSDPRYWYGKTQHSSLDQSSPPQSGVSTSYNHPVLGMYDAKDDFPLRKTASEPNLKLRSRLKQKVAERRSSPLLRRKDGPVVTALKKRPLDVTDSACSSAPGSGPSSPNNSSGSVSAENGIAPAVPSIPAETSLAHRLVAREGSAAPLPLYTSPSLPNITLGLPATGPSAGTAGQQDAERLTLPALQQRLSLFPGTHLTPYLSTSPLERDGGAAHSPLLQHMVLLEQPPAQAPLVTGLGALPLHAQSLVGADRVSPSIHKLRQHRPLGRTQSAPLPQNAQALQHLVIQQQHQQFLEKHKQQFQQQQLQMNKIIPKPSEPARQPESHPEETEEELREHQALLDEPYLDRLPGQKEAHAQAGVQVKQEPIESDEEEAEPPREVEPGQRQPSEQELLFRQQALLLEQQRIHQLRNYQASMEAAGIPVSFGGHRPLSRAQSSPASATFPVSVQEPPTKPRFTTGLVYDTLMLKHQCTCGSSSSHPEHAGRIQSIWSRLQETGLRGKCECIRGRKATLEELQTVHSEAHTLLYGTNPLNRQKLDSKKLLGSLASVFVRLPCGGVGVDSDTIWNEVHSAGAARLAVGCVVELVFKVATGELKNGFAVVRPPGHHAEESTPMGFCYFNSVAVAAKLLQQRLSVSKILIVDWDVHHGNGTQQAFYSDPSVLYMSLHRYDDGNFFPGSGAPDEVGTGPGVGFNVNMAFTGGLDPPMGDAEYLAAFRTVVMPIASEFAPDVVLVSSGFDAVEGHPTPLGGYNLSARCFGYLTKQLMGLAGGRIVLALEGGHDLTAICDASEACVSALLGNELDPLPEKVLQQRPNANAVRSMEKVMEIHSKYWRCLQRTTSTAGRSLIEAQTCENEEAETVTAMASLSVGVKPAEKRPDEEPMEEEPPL
Protocol description: Inhibition of recombinant human N-terminal GST-fusion tagged/C-terminal GST-tagged HDAC4 (627 to 1084 residues) expressed in baculovirus infected insect cells using Boc-Lys(TFA)-AMC as substrate preincubated for 5 mins followed by substrate addition measured after 90 mins by fluorimetry
Endpoint label: IC50 (µM)
Lab book: enter the figure in µM, no units written.

As a guide, the following entries are already answered.
| Compound structure string | IC50, µM |
| --- | --- |
| O=C(CCCCCONC(=O)c1cc2ccccc2[nH]1)NO | 55.7 |
| O=C(CCCCCONC(=O)c1cnc2ccccc2n1)NO | 60.8 |

Note: attention shifts to another entry.
INPUT: Name the recorded IC50 for O=C(CCCCCONC(=O)c1ccc2ccccc2c1)NO .
OUTPUT: 51.8

----------
System: Histone deacetylase
Protocol description: Inhibition of HDAC in human CAL-27 cells using Boc-Lys (acetyl)-AMC as substrate preincubated for 18 hrs followed by susbtrate addition and measured after 3 hrs by fluorescence microplate reader assay
Assay type: cell-based
Endpoint label: IC50 (nM)
# number only, unit nM dropped from output

| Compound structure string | IC50, nM |
| --- | --- |
| O=C(CCCCCONC(=O)c1[nH]nc2ccccc12)NO | 430 |

INPUT: What does the data say about its IC50? Entry: O=C(CCCCCONC(=O)c1cc2ccccc2o1)NO
OUTPUT: 1990

INPUT: # iterate: O=C(CCCCCONC(=O)c1nccc2ccccc12)NO
OUTPUT: 1500

INPUT: What do you have for O=C(CCCCCONC(=O)c1cccc2ccccc12)NO ?
OUTPUT: 1890

INPUT: What do you get for O=C(CCCCCONC(=O)c1ccc2cc[nH]c2c1)NO ?
OUTPUT: 400

INPUT: Moving on to the next molecule: O=C(CCCCCONC(=O)c1ccc2ccccc2c1)NO
OUTPUT: 100

----------
Form field: IC50 (one value per entry).
System: Histone deacetylase
Protocol description: Inhibition of HDAC in human A2780 cells using Boc-Lys (acetyl)-AMC as substrate preincubated for 18 hrs followed by susbtrate addition and measured after 3 hrs by fluorescence microplate reader assay
Format: cell-based
Express it in µM; write the number only.

| Compound structure string | System | Units text | Value observed |
| --- | --- | --- | --- |
| O=C(CCCCCONC(=O)c1cc2ccccc2o1)NO | Histone deacetylase | µM | 1.71 |
| O=C(CCCCCONC(=O)c1[nH]nc2ccccc12)NO | Histone deacetylase | µM | 0.71 |

Moving on to another compound below.
INPUT: Which IC50 value is on record for O=C(CCCCCONC(=O)c1nc2ccccc2s1)NO ?
OUTPUT: 2.7

----------
# Lookup of reported IC50 keyed by entry
System: Protein deacetylase HDAC6 (Homo sapiens, UniProt Q9UBN7)
Sequence (Q9UBN7 whole entry): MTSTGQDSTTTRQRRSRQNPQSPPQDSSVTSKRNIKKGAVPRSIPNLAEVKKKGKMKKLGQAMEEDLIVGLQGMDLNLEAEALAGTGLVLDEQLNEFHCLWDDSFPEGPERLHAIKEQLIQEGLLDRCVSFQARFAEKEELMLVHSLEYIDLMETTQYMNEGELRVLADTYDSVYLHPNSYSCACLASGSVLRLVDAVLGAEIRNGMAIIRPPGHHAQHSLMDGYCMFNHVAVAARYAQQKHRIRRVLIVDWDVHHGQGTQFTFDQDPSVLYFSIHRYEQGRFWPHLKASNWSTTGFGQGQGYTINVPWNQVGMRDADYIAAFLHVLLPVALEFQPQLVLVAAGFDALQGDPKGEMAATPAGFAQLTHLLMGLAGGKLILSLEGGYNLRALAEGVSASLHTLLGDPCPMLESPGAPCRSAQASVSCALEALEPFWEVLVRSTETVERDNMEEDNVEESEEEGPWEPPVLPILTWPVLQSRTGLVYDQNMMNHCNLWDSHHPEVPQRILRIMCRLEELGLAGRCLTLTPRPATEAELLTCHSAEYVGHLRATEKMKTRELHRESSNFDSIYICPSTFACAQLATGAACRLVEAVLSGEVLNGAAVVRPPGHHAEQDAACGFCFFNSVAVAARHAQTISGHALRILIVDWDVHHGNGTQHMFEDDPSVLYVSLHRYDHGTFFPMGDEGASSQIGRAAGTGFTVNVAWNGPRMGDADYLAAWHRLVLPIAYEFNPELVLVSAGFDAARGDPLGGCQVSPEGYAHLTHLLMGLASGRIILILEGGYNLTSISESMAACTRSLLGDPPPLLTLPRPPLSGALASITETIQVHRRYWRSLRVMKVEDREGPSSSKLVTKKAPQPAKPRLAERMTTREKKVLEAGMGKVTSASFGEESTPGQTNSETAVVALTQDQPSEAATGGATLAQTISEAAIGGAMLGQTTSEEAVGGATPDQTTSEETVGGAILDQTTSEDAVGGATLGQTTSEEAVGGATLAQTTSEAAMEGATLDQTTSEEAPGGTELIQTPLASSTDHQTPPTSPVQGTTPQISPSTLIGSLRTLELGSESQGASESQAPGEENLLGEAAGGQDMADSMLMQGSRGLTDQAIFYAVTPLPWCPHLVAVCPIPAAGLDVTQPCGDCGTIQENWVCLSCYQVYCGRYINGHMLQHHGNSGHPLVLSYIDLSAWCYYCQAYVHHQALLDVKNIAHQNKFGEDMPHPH
Protocol description: Inhibition of recombinant human N-terminal GST-tagged HDAC6 (1 to 1215 residues) expressed in baculovirus infected insect cells using Boc-Lys(Ac)-AMC as substrate preincubated for 5 mins followed by substrate addition measured after 90 mins by fluorimetry
Only the number, expressed in nM, is required.

Examples with answers:
| Compound structure string | Value observed |
| --- | --- |
| O=C(CCCCCONC(=O)c1cc2ccccc2[nH]1)NO | 13 |
| O=C(CCCCCONC(=O)c1cnc2ccccc2n1)NO | 18 |
| O=C(CCCCCONC(=O)c1ccc2ccccc2n1)NO | 25 |

INPUT: Please give the measured IC50 for this molecule: O=C(CCCCCONC(=O)c1nccc2ccccc12)NO
OUTPUT: 173

INPUT: Okay, and O=C(CCCCCONC(=O)c1ccc2ccccc2c1)NO ?
OUTPUT: 11

----------
System: Histone deacetylase 8 (Homo sapiens, UniProt Q9BY41)
Sequence (Q9BY41 whole entry, the tested form may be a part): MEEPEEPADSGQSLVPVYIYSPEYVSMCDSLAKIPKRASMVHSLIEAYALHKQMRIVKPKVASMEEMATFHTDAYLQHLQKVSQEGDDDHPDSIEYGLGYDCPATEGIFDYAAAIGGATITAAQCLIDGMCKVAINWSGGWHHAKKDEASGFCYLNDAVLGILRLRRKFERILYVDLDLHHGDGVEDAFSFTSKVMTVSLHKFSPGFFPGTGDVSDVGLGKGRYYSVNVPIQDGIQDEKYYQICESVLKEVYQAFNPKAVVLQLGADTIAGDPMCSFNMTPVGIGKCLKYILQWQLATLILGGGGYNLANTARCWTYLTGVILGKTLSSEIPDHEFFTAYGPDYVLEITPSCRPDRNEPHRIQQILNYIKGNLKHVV
Protocol description: Inhibition of recombinant human C-terminal His-fusion tagged/N-terminal Strep2 tagged HDAC8 (1 to 377 residues) expressed in insect cells using Boc-Lys(TFA)-AMC as substrate preincubated for 5 mins followed by substrate addition measured after 90 mins by fluorimetry
Some compounds, each annotated with its measured pIC50.
Answer as the number alone; pIC50 is minus log10 of concentration in mol/L.

| Compound structure string | System | Value observed |
| --- | --- | --- |
| O=C(CCCCCONC(=O)c1ccc2ccccc2c1)NO | Histone deacetylase 8 (Homo sapiens, UniProt Q9BY41) | 5.42 |
| O=C(CCCCCONC(=O)c1ccc2ccccc2n1)NO | Histone deacetylase 8 (Homo sapiens, UniProt Q9BY41) | 5.01 |
| O=C(CCCCCONC(=O)c1nccc2ccccc12)NO | Histone deacetylase 8 (Homo sapiens, UniProt Q9BY41) | 4.91 |

INPUT: I am curious: what pIC50 value has been reported for O=C(CCCCCONC(=O)c1cnc2ccccc2n1)NO ?
OUTPUT: 5.10

INPUT: Then this compound: O=C(CCCCCONC(=O)c1cc2ccccc2[nH]1)NO
OUTPUT: 4.99

----------
System: Histone deacetylase 2 (Homo sapiens, UniProt Q92769)
Sequence (Q92769 whole entry, the tested form may be a part): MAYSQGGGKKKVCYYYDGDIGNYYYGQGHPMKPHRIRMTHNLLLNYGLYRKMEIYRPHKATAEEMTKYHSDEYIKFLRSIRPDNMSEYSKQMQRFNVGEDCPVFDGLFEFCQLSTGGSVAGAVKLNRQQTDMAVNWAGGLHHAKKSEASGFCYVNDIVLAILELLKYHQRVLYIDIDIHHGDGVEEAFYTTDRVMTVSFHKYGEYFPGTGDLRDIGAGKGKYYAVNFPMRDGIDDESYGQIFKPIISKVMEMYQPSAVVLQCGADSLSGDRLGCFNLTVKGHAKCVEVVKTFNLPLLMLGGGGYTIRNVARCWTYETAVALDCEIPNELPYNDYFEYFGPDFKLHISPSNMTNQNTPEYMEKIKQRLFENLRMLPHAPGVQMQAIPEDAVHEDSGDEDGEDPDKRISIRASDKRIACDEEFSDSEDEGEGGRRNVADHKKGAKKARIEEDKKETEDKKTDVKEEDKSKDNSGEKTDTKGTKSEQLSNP
Protocol description: Inhibition of recombinant human full length C-terminal GST-fusion tagged HDAC2 expressed in baculovirus infected insect cells using Boc-Lys(Ac)-AMC as substrate preincubated for 5 mins followed by substrate addition measured after 90 mins by fluorimetry
Endpoint label: log10(IC50) (log10 of the value in nM)
Short version: log10 scale, IC50, nM.

Past entries and their recorded results:
| Compound structure string | System | Value observed |
| --- | --- | --- |
| O=C(CCCCCONC(=O)c1ccc2ccccc2n1)NO | Histone deacetylase 2 (Homo sapiens, UniProt Q92769) | 1.96 |
| O=C(CCCCCONC(=O)c1nccc2ccccc12)NO | Histone deacetylase 2 (Homo sapiens, UniProt Q92769) | 2.88 |
| O=C(CCCCCONC(=O)c1cc2ccccc2[nH]1)NO | Histone deacetylase 2 (Homo sapiens, UniProt Q92769) | 1.76 |
| O=C(CCCCCONC(=O)c1ccc2ccccc2c1)NO | Histone deacetylase 2 (Homo sapiens, UniProt Q92769) | 1.61 |

Field: next compound
INPUT: Sample O=C(CCCCCONC(=O)c1cnc2ccccc2n1)NO — what was its log10(IC50)?
OUTPUT: 1.64

----------
IC50 listing for selected compounds.
System: Histone deacetylase
Protocol description: Inhibition of HDAC in human CAL-27 cells using Boc-Lys (acetyl)-AMC as substrate preincubated for 18 hrs followed by susbtrate addition and measured after 3 hrs by fluorescence microplate reader assay
Type: cell-based
Number in µM, nothing else.

Look over these answered cases.
| Compound structure string | Units text | Value observed |
| --- | --- | --- |
| O=C(CCCCCONC(=O)c1nc2ccccc2[nH]1)NO | µM | 4.17 |
| O=C(CCCCCONC(=O)c1ccc2ccccc2n1)NO | µM | 0.18 |
| O=C(CCCCCONC(=O)c1cccc2[nH]ccc12)NO | µM | 0.48 |
| O=C(CCCCCONC(=O)c1c[nH]c2ccccc12)NO | µM | 0.81 |
| O=C(CCCCCONC(=O)c1ccnc2ccccc12)NO | µM | 5.97 |

Let's switch to this compound now.
INPUT: Notebook entry, Histone deacetylase assay: IC50 of O=C(CCCCCONC(=O)c1nc2ccccc2s1)NO = ?
OUTPUT: 3.16
